# procedure.details: Coenzyme Q in mice blood plasma and organs after oral feeding, HPLC
# Format: in vivo, Swiss albino mice
# measurement.conditions: Swiss albino, mouse, blood, oral each 5 mg/Kg b.w. per day for 5 days
# Method: One year old caged stressed Sprague-Dawley rats (250-270 gms) were fed the following, individually or in combination after suspension in 0.8% carboxymethyl cellulose: CoQ10 (5 mg/Kg b.w./day) and 3,8-(OH)2-DBP (5 mg/Kg b.w./day) for 5 days. Blood was collected by puncture of the retro-orbital plexus. The plasma was separated by centrifugation, extracted with methanol and subjected to HPLC. […]
experimental.readout: concentration at 5 days (nM)
One number for each entry, in nM.

Respond only with concentration at 5 days recorded for COC1=C(OC)C(=O)C(C/C=C(\C)CC/C=C(\C)CC/C=C(\C)CC/C=C(\C)CC/C=C(\C)CC/C=C(\C)CC/C=C(\C)CC/C=C(\C)CC/C=C(\C)CCC=C(C)C)=C(C)C1=O
810

Data provenance: patent US8894993B2
